tested on: SN12C renal; experiment: NCI tumour cell line growth inhibition, 48 h
Measurement type: GI50

Form field - read-out: GI50; system: SN12C renal; submitted item: `CC1CCN(CCCCCOc2ccc3oc4cc(Cl)ccc4c(=O)c3c2)CC1`
6490 nM

Now try `CN(C)CCOc1ccc(/C(=C(/CCCl)c2ccccc2)c2ccccc2)cc1` .
1570 nM

And the next one, `CC(=O)c1cc2c(cc1Nc1c3ccccc3nc3occ(Cl)c13)OCO2` ?
603 nM

Another compound to check: `C[C@@H]1CC[C@@H]2[C@@H]1[C@H](OC(=O)/C=C/c1ccccc1)[C@]1(C3CCCCC3)C[C@@H](NC(=O)CO)[C@@]2(C)O1`
11400 nM

How about `Oc1c(CN2CCCC2)cc(COCc2ccc(Br)cc2)c2cccnc12` ?
989 nM

Request: `O=C(Nc1ccc(Oc2ccc3nc(NC(=O)c4ccccc4)[nH]c3c2)cc1)Nc1cc(C(F)(F)F)ccc1F`
1750 nM
